// data source = the supplement of paper PMC11316812

# System: MCF7
# protocol-details: percentage of EdU-negative (G0-arrested) nuclei per well, 72 h; higher = more G0 arrest
# test-context: protein concentration 0.225 µM; reference: sequence is the full UniProt precursor, the tested protein was the secreted form or ectodomain
The following sequences are shown together with reported percentage of EdU-negative values.

>  <item-sequence>
MRTADREARPGLPSLLLLLLAGAGLSAASPPAAPRFNVSLDSVPELRWLPVLRHYDLDLVRAAMAQVIGDRVPKWVHVLIGKVVLELERFLPQPFTGEIRGMCDFMNLSLADCLLVNLAYESSVFCTSIVAQDSRGHIYHGRNLDYPFGNVLRKLTVDVQFLKNGQIAFTGTTFIGYVGLWTGQSPHKFTVSGDERDKGWWWENAIAALFRRHIPVSWLIRATLSESENFEAAVGKLAKTPLIADVYYIVGGTSPREGVVITRNRDGPADIWPLDPLNGAWFRVETNYDHWKPAPKEDDRRTSAIKALNATGQANLSLEALFQILSVVPVYNNFTIYTTVMSAGSPDKYMTRIRNPSRK

>  <percentage of EdU-negative [%]>
29.2

$$$$
>  <item-sequence>
MSRGLQLLLLSCAYSLAPATPEVKVACSEDVDLPCTAPWDPQVPYTVSWVKLLEGGEERMETPQEDHLRGQHYHQKGQNGSFDAPNERPYSLKIRNTTSCNSGTYRCTLQDPDGQRNLSGKVILRVTGCPAQRKEETFKKYRAEIVLLLALVIFYLTLIIFTCKFARLQSIFPDFSKAGMERAFLPVTSPNKHLGLVTPHKTELV

>  <percentage of EdU-negative [%]>
25.7

$$$$
>  <item-sequence>
MTLFPVLLFLVAGLLPSFPANEDKDPAFTALLTTQTQVQREIVNKHNELRRAVSPPARNMLKMEWNKEAAANAQKWANQCNYRHSNPKDRMTSLKCGENLYMSSASSSWSQAIQSWFDEYNDFDFGVGPKTPNAVVGHYTQVVWYSSYLVGCGNAYCPNQKVLKYYYVCQYCPAGNWANRLYVPYEQGAPCASCPDNCDDGLCTNGCKYEDLYSNCKSLKLTLTCKHQLVRDSCKASCNCSNSIY

>  <percentage of EdU-negative [%]>
27.5

$$$$

---

# Test system: MCF7
# protocol-details: percentage of EdU-negative (G0-arrested) nuclei per well, 72 h; higher = more G0 arrest
# test-context: protein concentration 0.225 µM; reference: sequence is the full UniProt precursor, the tested protein was the secreted form or ectodomain

>  <item-sequence>
MPGGPGVLQALPATIFLLFLLSAVYLGPGCQALWMHKVPASLMVSLGEDAHFQCPHNSSNNANVTWWRVLHGNYTWPPEFLGPGEDPNGTLIIQNVNKSHGGIYVCRVQEGNESYQQSCGTYLRVRQPPPRPFLDMGEGTKNRIITAEGIILLFCAVVPGTLLLFRKRWQNEKLGLDAGDEYEDENLYEGLNLDDCSMYEDISRGLQGTYQDVGSLNIGDVQLEKP

>  <tested-on>
MCF7

>  <percentage of EdU-negative (%)>
27

$$$$
>  <item-sequence>
MKRLVCVLLVCSSAVAQLHKDPTLDHHWHLWKKTYGKQYKEKNEEAVRRLIWEKNLKFVMLHNLEHSMGMHSYDLGMNHLGDMTSEEVMSLMSSLRVPSQWQRNITYKSNPNRILPDSVDWREKGCVTEVKYQGSCGACWAFSAVGALEAQLKLKTGKLVSLSAQNLVDCSTEKYGNKGCNGGFMTTAFQYIIDNKGIDSDASYPYKAMDQKCQYDSKYRAATCSKYTELPYGREDVLKEAVANKGPVSVGVDARHPSFFLYRSGVYYEPSCTQNVNHGVLVVGYGDLNGKEYWLVKNSWGHNFGEEGYIRMARNKGNHCGIASFPSYPEI

>  <tested-on>
MCF7

>  <percentage of EdU-negative (%)>
28.9

$$$$
>  <item-sequence>
MGSRGQGLLLAYCLLLAFASGLVLSRVPHVQGEQQEWEGTEELPSPPDHAERAEEQHEKYRPSQDQGLPASRCLRCCDPGTSMYPATAVPQINITILKGEKGDRGDRGLQGKYGKTGSAGARGHTGPKGQKGSMGAPGERCKSHYAAFSVGRKKPMHSNHYYQTVIFDTEFVNLYDHFNMFTGKFYCYVPGLYFFSLNVHTWNQKETYLHIMKNEEEVVILFAQVGDRSIMQSQSLMLELREQDQVWVRLYKGERENAIFSEELDTYITFSGYLVKHATEP [Q9BXJ1]

>  <tested-on>
MCF7

>  <percentage of EdU-negative (%)>
23.7

$$$$
>  <item-sequence>
MPPRGPASELLLLRLLLLGAATAAPLAPRPSKEELTRCLAEVVTEVLTVGQVQRGPCTALLHKELCGTEPHGCASTEEKGLLLGDFKKQEAGKMRSSQEVRDEEEEEVAERTHKSEVQEQAIRMQGHRQLHQEEDEEEEKEERKRGPMETFEDLWQRHLENGGDLQKRVAEKASDKETAQFQAEEKGVRVLGGDRSLWQGAERGGGERREDLPHHHHHHHQPEAEPRQEKEEASEREEKEVEQLEHLRDELKKVTETLGEQLRREG [I3L3R5]

>  <tested-on>
MCF7

>  <percentage of EdU-negative (%)>
26.5

$$$$
>  <item-sequence>
MSSFGYRTLTVALFTLICCPGSDEKVFEVHVRPKKLAVEPKGSLEVNCSTTCNQPEVGGLETSLDKILLDEQAQWKHYLVSNISHDTVLQCHFTCSGKQESMNSNVSVYQPPRQVILTLQPTLVAVGKSFTIECRVPTVEPLDSLTLFLFRGNETLHYETFGKAAPAPQEATATFNSTADREDGHRNFSCLAVLDLMSRGGNIFHKHSAPKMLEIYEPVSDSQMVIIVTVVSVLLSLFVTSVLLCFIFGQHLRQQRMGTYGVRAAWRRLPQAFRP

>  <tested-on>
MCF7

>  <percentage of EdU-negative (%)>
27.3

$$$$
>  <item-sequence>
MMSFLLGAILTLLWAPTAQAEVLLQPDFNAEKFSGLWYVVSMASDCRVFLGKKDHLSMSTRAIRPTEEGGLHVHMEFPGADGCNQVDAEYLKVGSEGHFRVPALGYLDVRIVDTDYSSFAVLYIYKELEGALSTMVQLYSRTQDVSPQALKSFQDFYPTLGLPKDMMVMLPQSDACNPESKEAP [Q6UWW0]

>  <tested-on>
MCF7

>  <percentage of EdU-negative (%)>
25.9

$$$$

---

The following sequences are shown together with reported percentage of EdU-negative values.
# Tested on: MCF7;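 further: secreted proteins added to cultured cells, EdU pulse at the end, nuclei found by Hoechst imaging, EdU status from nuclear versus surrounding ring intensity ratio, PBS as neutral control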
# protocol-details: percentage of EdU-negative (G0-arrested) nuclei per well, 72 h; higher = more G0 arrest
# test-context: protein concentration 0.0225 µM; reference: sequence is the full UniProt precursor, the tested protein was the secreted form or ectodomain

>  <item-sequence>
MCVTYHNGTGYCKCPEGFLGEYCQHRDPCEKNRCQNGGTCVAQAMLGKATCRCASGFTGEDCQYSTSHPCFVSRPCLNGGTCHMLSRDTYECTCQVGFTGKECQWTDACLSHPCANGSTCTTVANQFSCKCLTGFTGQKCETDVNECDIPGHCQHGGTCLNLPGSYQCQCLQGFTGQYCDSLYVPCAPSPCVNGGTCRQTGDFTFECNCLPETVRRGTELWERDREVWNGKEHDEN [Q7Z3S9]

>  <percentage of EdU-negative>
26%

$$$$
>  <item-sequence>
MPVPASWPHLPSPFLLMTLLLGRLTGVAGEDELQVIQPEKSVSVAAGESATLRCAMTSLIPVGPIMWFRGAGAGRELIYNQKEGHFPRVTTVSELTKRNNLDFSISISNITPADAGTYYCVKFRKGSPDDVEFKSGAGTELSVRAKPSAPVVSGPAVRATPEHTVSFTCESHGFSPRDITLKWFKNGNELSDFQTNVDPAGDSVSYSIHSTARVVLTRGDVHSQVICEIAHITLQGDPLRGTANLSEAIRVPPTLEVTQQPMRAENQANVTCQVSNFYPRGLQLTWLENGNVSRTETASTLIENKDGTYNWMSWLLVNTCAHRDDVVLTCQVEHDGQQAVSKSYALEISAHQKEHGSDITHEAALAPTAPLLVALLLGPKLLLVVGVSAIYICWKQKA

>  <percentage of EdU-negative>
24.1%

$$$$
>  <item-sequence>
MQMPAMMSLLLVSVGLMEALQAQSHPITRRDLFSQEIQLDMALASFDDQYAGCAAAMTAALPDLNHTEFQANQVYADSWTLASSQWQERQARWPEWSLSPTRPSPPPLGFRDEHGVALLAYTANSPLHKEFNAAVREAGRSRAHYLHHFSFKTLHFLLTEALQLLGSGQRPPRCHQVFRGVHGLRFRPAGPRATVRLGGFASASLKHVAAQQFGEDTFFGIWTCLGAPIKGYSFFPGEEEVLIPPFETFQVINASRLAQGPARIYLRALGKHSTYNCEYIKDKKCKSGPCHLDNSAMGQSPLSAVWSLLLLLWFLVVRAFPDGPGLL

>  <percentage of EdU-negative>
23.7%

$$$$
